Source of measurements: patent US20130330324A1

- targetOrSystem: Human HER3, endogenous, on human cancer cell lines (human, UniProt P21860 20-1342)
- assayRemarks: cell-based or functional assay

binder	unitsSymbol	SK-Br-3 pHER3 % inhibition
MOR09824 (antibody, human IgG1, kappa, V domains shown, tested as IgG) VH: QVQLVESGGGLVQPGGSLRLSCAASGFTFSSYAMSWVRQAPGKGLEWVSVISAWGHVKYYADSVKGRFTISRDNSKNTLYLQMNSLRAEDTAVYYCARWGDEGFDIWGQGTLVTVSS VL: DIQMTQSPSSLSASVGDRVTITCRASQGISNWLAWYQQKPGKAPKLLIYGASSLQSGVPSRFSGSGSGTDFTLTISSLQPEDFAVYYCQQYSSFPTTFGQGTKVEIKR	%	64
MOR10701 (antibody, human IgG1, kappa, V domains shown, tested as IgG) VH: EVQLLESGGGLVQPGGSLRLSCAASGFTFSSYAMSWVRQAPGKGLEWVSVTGAVGRSTYYPDSVKGRFTISRDNSKNTLYLQMNSLRAEDTAVYYCARWGDEGFDIWGQGTLVTVSS VL: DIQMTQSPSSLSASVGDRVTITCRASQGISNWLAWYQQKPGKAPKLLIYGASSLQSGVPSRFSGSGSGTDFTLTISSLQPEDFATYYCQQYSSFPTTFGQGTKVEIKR	%	74
MOR10703 (antibody, human IgG1, kappa, V domains shown, tested as IgG) VH: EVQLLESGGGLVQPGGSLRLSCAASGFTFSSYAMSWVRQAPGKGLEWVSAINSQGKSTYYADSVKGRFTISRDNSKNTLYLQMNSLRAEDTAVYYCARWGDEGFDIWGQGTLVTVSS VL: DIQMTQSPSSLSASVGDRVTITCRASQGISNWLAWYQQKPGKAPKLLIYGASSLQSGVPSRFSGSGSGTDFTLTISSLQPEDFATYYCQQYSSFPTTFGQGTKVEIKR	%	69
